The origin of these recorded values is ChEMBL document CHEMBL1136812.

The compounds listed here are annotated with their Ki.
# targetUnderTest: UniProt P08912
# Sequence (P08912 whole entry): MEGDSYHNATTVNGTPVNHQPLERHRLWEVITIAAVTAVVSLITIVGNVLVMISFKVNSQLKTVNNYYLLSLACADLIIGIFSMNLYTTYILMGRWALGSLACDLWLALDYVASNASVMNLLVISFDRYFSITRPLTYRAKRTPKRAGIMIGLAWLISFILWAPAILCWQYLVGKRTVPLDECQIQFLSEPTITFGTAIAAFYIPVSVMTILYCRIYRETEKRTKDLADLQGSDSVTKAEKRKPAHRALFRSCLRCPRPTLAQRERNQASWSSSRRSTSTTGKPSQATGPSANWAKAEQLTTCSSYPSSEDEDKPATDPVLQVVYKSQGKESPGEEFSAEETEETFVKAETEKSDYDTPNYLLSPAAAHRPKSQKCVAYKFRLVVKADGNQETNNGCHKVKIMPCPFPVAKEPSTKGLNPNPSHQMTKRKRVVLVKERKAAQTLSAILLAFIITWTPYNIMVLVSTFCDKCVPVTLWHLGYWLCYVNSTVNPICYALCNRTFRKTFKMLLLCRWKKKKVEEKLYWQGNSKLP

Give its Ki value. Item: CCCC(C1=C(CCN(C)C)Cc2ccccc21)c1ccccn1 (centres undefined)
0.302 µM

# repeat for "CN(C)CCNC(=O)C1=C(Cc2cccnc2)c2ccccc2C1"
66.1 µM

Continue with "CN(C)CCC1=C(Cc2cccnc2)c2ccccc2C1"
7.94 µM

Would you mind doing CC(C1=C(CCN2CCCCC2)Cc2ccccc21)c1ccccn1 (centres undefined) as well?
2.34 µM

====

# targetUnderTest: UniProt P08172
# Sequence (P08172 whole entry): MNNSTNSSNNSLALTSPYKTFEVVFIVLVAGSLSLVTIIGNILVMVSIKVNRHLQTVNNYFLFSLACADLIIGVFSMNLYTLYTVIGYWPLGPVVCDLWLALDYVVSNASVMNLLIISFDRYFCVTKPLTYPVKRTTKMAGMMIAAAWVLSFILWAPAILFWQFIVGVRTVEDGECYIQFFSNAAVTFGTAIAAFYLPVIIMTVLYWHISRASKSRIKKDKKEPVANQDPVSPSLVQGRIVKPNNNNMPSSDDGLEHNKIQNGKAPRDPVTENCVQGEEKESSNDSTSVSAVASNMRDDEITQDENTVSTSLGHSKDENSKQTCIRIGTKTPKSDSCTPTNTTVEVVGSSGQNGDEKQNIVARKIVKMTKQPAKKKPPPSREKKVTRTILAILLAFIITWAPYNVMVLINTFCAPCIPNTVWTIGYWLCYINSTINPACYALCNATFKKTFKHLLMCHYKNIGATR
observedProperty: Ki (nM)
# output: bare number, implied unit nM

>>> print(df.to_string())
                                   compound  observedproperty  observedresult
0  CC(C1=C(CCN(C)C(C)C)Cc2ccccc21)c1ccccn1 (stereo not drawn)                Ki             145

Now for the compound whose Ki we want.
# Ki lookup, item CC(C1=C(CCCN(C)C)Cc2ccccc21)c1ccccn1 (stereo not drawn)
263

====

As a worked illustration, we turn to Ki data collected for Histamine H1 receptor (Homo sapiens).
State the answer as a number, implicitly in nM.

>>> print(df.to_string())
                                   compound  valueunit  observedresult
0  CC(C1=C(CCN(C)C)Cc2ccccc21)c1ccccn1 (centres undefined) [DIMETHINDENE]         nM           0.692
1  C[C@H](C1=C(CCN(C)C)Cc2ccccc21)c1ccccn1 [(S)-(+)-DIMETHINDENE]         nM           0.437
2  CC(C1=C(CCN(C)CCF)Cc2ccccc21)c1ccccn1 (centres undefined)         nM            7.24

Please turn your attention to the following entry.
# input compound: CC(C1=C(CCN(C(C)C)C(C)C)Cc2ccccc21)c1ccccn1 (stereo in doubt; (-)-19) ; wanted: its Ki
2450
